Target: Fuc(a1-2)Gal(b1-3)GalNAc(a1-3)[Fuc(a1-2)]Gal(b1-4)GlcNAc
Test: glycan array binding signal (z-score within array); higher = stronger binding
Settings: glycan notation: IUPAC condensed, linker removed
This excerpt belongs to a sample that is enriched for the strongest signals.
Endpoint Label: glycan array binding signal (z-score)
Answers are plain numbers.

Binder | glycan array binding signal (z-score)
Si Bti9 1b-HA (Solanum lycopersicum) (protein) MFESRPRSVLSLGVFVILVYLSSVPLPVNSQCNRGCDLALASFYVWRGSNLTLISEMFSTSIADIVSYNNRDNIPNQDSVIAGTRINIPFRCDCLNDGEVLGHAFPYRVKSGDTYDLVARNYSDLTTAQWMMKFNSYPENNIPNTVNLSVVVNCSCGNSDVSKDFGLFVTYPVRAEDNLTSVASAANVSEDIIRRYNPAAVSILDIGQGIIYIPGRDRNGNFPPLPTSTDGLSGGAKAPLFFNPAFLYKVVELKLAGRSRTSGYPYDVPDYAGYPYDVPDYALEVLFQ | 0.182
KISKRILTGKK [NK11 (Sus scrofa)] | -0.539
GSL-I (Griffonia simplicifolia) (protein) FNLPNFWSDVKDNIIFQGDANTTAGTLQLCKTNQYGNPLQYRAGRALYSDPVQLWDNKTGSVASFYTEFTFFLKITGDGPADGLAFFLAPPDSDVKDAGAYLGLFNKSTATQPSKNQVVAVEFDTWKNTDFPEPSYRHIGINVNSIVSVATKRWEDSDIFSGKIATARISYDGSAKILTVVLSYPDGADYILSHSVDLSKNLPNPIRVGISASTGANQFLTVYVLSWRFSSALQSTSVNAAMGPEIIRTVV | -0.242

Now look at this entry.
Prompt: Please supply the value of reported glycan array binding signal (z-score) for the item MAL-II (Maackia amurensis), P93248 (protein) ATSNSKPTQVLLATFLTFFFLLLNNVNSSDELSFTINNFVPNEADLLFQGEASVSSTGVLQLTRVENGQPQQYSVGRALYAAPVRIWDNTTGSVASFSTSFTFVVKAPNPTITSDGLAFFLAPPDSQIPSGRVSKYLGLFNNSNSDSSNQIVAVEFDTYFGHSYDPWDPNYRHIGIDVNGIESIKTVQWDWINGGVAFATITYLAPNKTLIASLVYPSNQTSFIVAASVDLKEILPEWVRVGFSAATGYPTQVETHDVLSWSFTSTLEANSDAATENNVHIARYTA
Completion: -0.182

Reference source for all entries: the supplement of paper PMC8728848
